HEK293/CRE-LUC/hGLP1R Relative Signal:Noise (% P8) for assorted compounds
experimental.system: UniProt P43220
Sequence (P43220 24-463): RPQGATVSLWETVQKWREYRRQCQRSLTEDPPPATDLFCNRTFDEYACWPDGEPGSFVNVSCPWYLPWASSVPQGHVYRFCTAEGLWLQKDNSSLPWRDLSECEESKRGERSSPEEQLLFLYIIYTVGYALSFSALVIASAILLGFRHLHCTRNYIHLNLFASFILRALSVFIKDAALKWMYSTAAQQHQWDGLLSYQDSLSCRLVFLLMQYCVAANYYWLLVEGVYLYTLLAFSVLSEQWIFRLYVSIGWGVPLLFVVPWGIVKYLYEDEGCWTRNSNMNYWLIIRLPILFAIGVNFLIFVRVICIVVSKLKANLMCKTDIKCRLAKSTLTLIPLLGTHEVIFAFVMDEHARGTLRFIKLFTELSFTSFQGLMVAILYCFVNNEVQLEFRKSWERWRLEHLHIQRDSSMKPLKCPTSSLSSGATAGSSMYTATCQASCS
method: cAMP responsive luciferase reporter assay, HEK293/CRE-Luc/hGLP1R cells
Assay type: cell-based
run.conditions: relative to P8 of the same experiment
Where a SMILES comes first, the peptide text is derived from it. [ ]: non-standard residue; d: D form. The star is where a group is joined. Bip(2'-Et,4'-O(CH2)4NH2) = CCc1cc(OCCCCN)ccc1-c1ccc(C[C@H](N)C(=O)O)cc1; Nva(5-(3,5-Me2Ph)) = Cc1cc(C)cc(CCC[C@H](N)C(=O)O)c1; Ala(1H-tetrazol-5-yl) = N[C@@H](Cc1nnn[nH]1)C(=O)O; αMePhe(2-F) = C[C@](N)(Cc1ccccc1F)C(=O)O; X1 = O=C(CCCCCc1cnc[nH]1)*; X4 = CC(C)(C(=O)O)C(=O)*
State just the number; it will be interpreted in %.

CCc1cc(OCCCCN)ccc1-c1ccc(C[C@H](NC(=O)[C@H](CC(=O)O)NC(=O)[C@H](CO)NC(=O)[C@@H](NC(=O)[C@](C)(Cc2ccccc2F)NC(=O)[C@@H](NC(=O)CNC(=O)[C@H](Cc2nn[nH]n2)NC(=O)CCCCCc2cnc[nH]2)[C@@H](C)O)[C@@H](C)O)C(=O)N[C@@H](CCCc2cc(C)cc(C)c2)C(N)=O)cc1 [P11] (X1-[Ala(1H-tetrazol-5-yl)]GT[αMePhe(2-F)]TSD[Bip(2'-Et,4'-O(CH2)4NH2)][Nva(5-(3,5-Me2Ph))]-NH2); 83.4
CCc1cc(OCCCCN)ccc1-c1ccc(C[C@H](NC(=O)[C@H](CC(=O)O)NC(=O)[C@H](CO)NC(=O)[C@@H](NC(=O)[C@](C)(Cc2ccccc2F)NC(=O)[C@@H](NC(=O)CNC(=O)[C@H](Cc2nn[nH]n2)NC(=O)[C@H](C)NC(=O)[C@@H](N)Cc2cnc[nH]2)[C@@H](C)O)[C@@H](C)O)C(=O)N[C@@H](CCCc2cc(C)cc(C)c2)C(N)=O)cc1 [P10] (H-HA[Ala(1H-tetrazol-5-yl)]GT[αMePhe(2-F)]TSD[Bip(2'-Et,4'-O(CH2)4NH2)][Nva(5-(3,5-Me2Ph))]-NH2); 68.6

Q: Provide value of HEK293/CRE-LUC/hGLP1R Relative Signal:Noise (% P8) for this record tested with UniProt P43220: CCc1cc(OCCCCN)ccc1-c1ccc(C[C@H](NC(=O)[C@H](CC(=O)O)NC(=O)[C@H](CO)NC(=O)[C@@H](NC(=O)[C@](C)(Cc2ccccc2F)NC(=O)[C@@H](NC(=O)CNC(=O)[C@H](Cc2nn[nH]n2)NC(=O)C(C)(C)C(=O)O)[C@@H](C)O)[C@@H](C)O)C(=O)N[C@@H](CCCc2cc(C)cc(C)c2)C(N)=O)cc1 [P3] (X4-[Ala(1H-tetrazol-5-yl)]GT[αMePhe(2-F)]TSD[Bip(2'-Et,4'-O(CH2)4NH2)][Nva(5-(3,5-Me2Ph))]-NH2)
Result: 70.3
